- Tested on: BT-549
- Assay: normalised response (% of control), CellTiter-Glo; higher = more viable cells (100 = DMSO, 0 = benzethonium chloride kill control)
- Recorded Conditions: incubation time: 72 h
Answer each item with its documented normalised response.
// units = %; emit number, no label

Identify measured normalised response corresponding to Cc1c(N)nc([C@H](CC(N)=O)NC[C@H](N)C(N)=O)nc1C(=O)N[C@H](C(=O)N[C@H](C)[C@@H](O)[C@H](C)C(=O)N[C@H](C(=O)NCCc1nc(-c2nc(C(=O)NCCC[S+](C)C)cs2)cs1)[C@@H](C)O)[C@@H](OC1OC(CO)C(O)C(O)C1OC1OC(CO)C(O)C(OC(N)=O)C1O)c1cnc[nH]1 (stereo partly drawn) [Bleomycin] (10 nM)
87.6

Using known records, supply normalised response for CC(C)NC[C@@H](C(=O)N1CCN(c2ncnc3c2[C@H](C)C[C@H]3O)CC1)c1ccc(Cl)cc1 [GDC-0068] (1000 nM)
70.2

Tell us which normalised response value is on record for N[C@@H](Cc1ccc(N(CCCl)CCCl)cc1)C(=O)O [Melphalan] (1.25 nM)
97.8

Determine its reported normalised response: N[C@@H](Cc1ccc(N(CCCl)CCCl)cc1)C(=O)O [Melphalan] (12.5 nM)
100

Provide measured normalised response value, entry: CC[C@H](CC#N)OC(=O)N[C@@H](C)c1cccc(NC(=O)Nc2ccc(-c3cnco3)c(OC)c2)c1 [AVN944] (1 nM)
98.5

Give the reported normalised response for this molecule. CCCCCOC(=O)Nc1nc(=O)n([C@@H]2O[C@H](C)[C@@H](O)[C@H]2O)cc1F [Capecitabine] (1 nM)
107

Retrieve normalised response measured for C[C@@H](C(=O)O)c1ccc(-c2ccccc2)c(F)c1 [Tarenflurbil] (10 nM) and print it.
94.5

Input Cn1cc(C[C@@H](N)C(=O)O)c2ccccc21 [1-methyl-D-tryptophan] (5 nM) , output reported normalised response.
95.7

----------
- Test system: BT-474
- Assay: drug sensitivity score (DSS), CellTiter-Glo (DSS (AUC-based score)); higher = stronger drug effect (viability inhibition or cytotoxicity); extreme values may be limits of the assay
- Recorded Conditions: incubation time: 72 h
Experimental Endpoint: drug sensitivity score

Answer with drug sensitivity score of CN1CCc2c(c3ccccc3n2Cc2ccc(C(=O)NO)cc2)C1 [Tubastatin A] measured for BT-474.
0

Report value only: drug sensitivity score, BT-474, CC/C(=C(\c1ccccc1)c1ccc(OCCN(C)C)cc1)c1ccccc1 [Tamoxifen]
0

Send back BT-474 drug sensitivity score of C[C@@H]1C[C@H]2[C@@H]3CCC4=CC(=O)C=C[C@]4(C)[C@@]3(F)[C@@H](O)C[C@]2(C)[C@@]1(O)C(=O)CO [Dexamethasone] only.
0

----------
- System: BT-549
- Assay: normalised response (% of control), CellTiter-Glo; higher = more viable cells (100 = DMSO, 0 = benzethonium chloride kill control)
- Recorded Conditions: incubation time: 72 h
Label yes when normalised response is at or above 80%; otherwise label no.

Determine whether this molecule has normalised response no lower than 80%: Cn1nnc2c(C(N)=O)ncn2c1=O [Temozolomide] (10000 nM)
yes

State whether the measured normalised response reaches 80%, counting equality as reaching it, for CN1CCc2c(c3ccccc3n2Cc2ccc(C(=O)NO)cc2)C1 [Tubastatin A] (10000 nM)
no

// inclusive: normalised response at least 80%? input: NC1(c2ccc(-c3nc4ccn5c(=O)[nH]nc5c4cc3-c3ccccc3)cc2)CCC1 [MK-2206] (1000 nM)
no

Tell me whether normalised response is at least 80% here: COc1cc2c(N3CCN(C(=O)Nc4ccc(OC(C)C)cc4)CC3)ncnc2cc1OCCCN1CCCCC1 [Tandutinib] (1000 nM)
yes

Would you say COc1cc2c(Oc3ccc(NC(=O)C4(C(=O)Nc5ccc(F)cc5)CC4)cc3F)ccnc2cc1OCCCN1CCOCC1 [Foretinib] (1000 nM) shows normalised response at minimum 80%?
no

Record CCCc1cc(C)[nH]c(=O)c1CNC(=O)c1cc(-c2ccnc(N3CCN(C)CC3)c2)cc2c1cnn2C(C)C [GSK343] (10000 nM) ; criterion: normalised response no lower than 80%. Met?
no

Hi team, for CCN(CC)CCOc1ccc(C(=C(Cl)c2ccccc2)c2ccccc2)cc1 [Clomifene] (10000 nM) , is the recorded normalised response at or above 80%?
no

Say whether CC(C)n1nc(-c2ccc3oc(N)nc3c2)c2c(N)ncnc21 [INK128] (1000 nM) shows normalised response of 80% or more.
no

Please tell me: is the molecule CC[C@H](CC#N)OC(=O)N[C@@H](C)c1cccc(NC(=O)Nc2ccc(-c3cnco3)c(OC)c2)c1 [AVN944] (10000 nM) at or over 80% in terms of normalised response?
no

Is the recorded value of normalised response equal to or greater than 80% for this molecule? CC(C)C(=O)Nc1ccc([N+](=O)[O-])c(C(F)(F)F)c1 [Flutamide] (10000 nM)
yes

Reported normalised response reaches at least 80% for Cc1cc2c(F)c(Oc3ncnn4cc(OC[C@@H](C)O)c(C)c34)ccc2[nH]1 [Brivanib] (1000 nM) ?
yes
